SUBJECT OF TEST: T1, rGyr_hel (reverse gyrase helicase-like domain) (Thermotoga maritima, UniProt O51934 59-541)
T1 sequence: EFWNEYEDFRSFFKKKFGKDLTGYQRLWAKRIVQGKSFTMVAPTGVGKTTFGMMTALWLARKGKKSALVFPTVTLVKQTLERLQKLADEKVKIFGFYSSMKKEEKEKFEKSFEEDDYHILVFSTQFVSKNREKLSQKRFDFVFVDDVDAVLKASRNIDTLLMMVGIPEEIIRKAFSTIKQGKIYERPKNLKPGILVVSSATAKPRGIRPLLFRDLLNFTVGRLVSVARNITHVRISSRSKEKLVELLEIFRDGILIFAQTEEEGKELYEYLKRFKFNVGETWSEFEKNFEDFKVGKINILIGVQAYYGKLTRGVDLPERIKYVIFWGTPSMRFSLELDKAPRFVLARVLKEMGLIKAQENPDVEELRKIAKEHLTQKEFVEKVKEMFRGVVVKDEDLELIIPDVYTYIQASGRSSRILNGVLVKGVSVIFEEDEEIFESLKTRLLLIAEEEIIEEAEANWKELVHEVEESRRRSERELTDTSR
TEST NAME: fluorescence anisotropy
QUANTITY: Kd

Q: Given the entry 60-base ssDNA (ssDNA) DNA: AAGCCAAGCTTCTAGAGTCAGCCCGTGATATTCATTACTTCTTATCCTAGGATCCCCGTT , report its measured Kd.
Ans: 330 nM
